Recorded values, source ChEMBL document CHEMBL1781961.

Measured log10 CC50 at 48 h, listed per entry.
# procedure-text: Cytotoxicity against MDCK cells after 48 hrs by CPE assay
# Format: cell-based, Canis lupus familiaris
# condition-description: dog
assay-endpoint: log10 CC50 at 48 h (log10 of the value in µM)

1) CCO/N=C1\CN(c2nc3c(cc2F)c(=O)c(C(=O)O)cn3C2CC2)CCC1(C)N (configuration not stated)	2.48
2) CO/N=C1\CN(c2nc3c(cc2F)c(=O)c(C(=O)O)cn3C2CC2)CC1CN (configuration not stated)	2.51
3) CO/N=C1\CN(c2c(F)cc3c(=O)c(C(=O)O)cn(CCF)c3c2F)CCC1(C)N (configuration not stated)	1.56
4) CO/N=C1\CN(c2c(F)cc3c(=O)c(C(=O)O)cn4c3c2OC[C@@H]4C)CCC1(C)N (some centres not stated)	3.18
5) CCO/N=C1\CN(c2c(F)cc3c(=O)c(C(=O)O)cn(C4CC4)c3c2OC)CCC1(C)N (configuration not stated)	2.45
6) CO/N=C1\CN(c2c(F)cc3c(=O)c(C(=O)O)cn(C4CC4)c3c2OC(F)F)CCC1(C)N (configuration not stated)	3.03
7) CCO/N=C1\CN(c2nc3c(cc2F)c(=O)c(C(=O)O)cn3-c2ccc(F)cc2F)CCC1(C)N (configuration not stated)	2.11
8) CO/N=C1\CN(c2nc3c(cc2F)c(=O)c(C(=O)O)cn3-c2ccc(F)cc2F)CCC1(C)N (configuration not stated)	1.97
9) CCO/N=C1\CN(c2c(F)cc3c(=O)c(C(=O)O)cn(C4CC4)c3c2OC(F)F)CCC1(C)N (configuration not stated)	2.71
10) COc1c(N2C[C@@H]3CCCN[C@@H]3C2)c(F)cc2c(=O)c(C(=O)O)cn(C3CC3)c12	2.21
11) COc1c(N2CCNC(C)C2)c(F)cc2c(=O)c(C(=O)O)cn(C3CC3)c12 (configuration not stated)	2.60
12) CO/N=C1\CN(c2nc3c(cc2F)c(=O)c(C(=O)O)cn3C2CC2)CCC1(C)N (configuration not stated)	1.89
13) CCO/N=C1\CN(c2c(F)cc3c(=O)c(C(=O)O)cn(C4CC4)c3c2F)CCC1(C)N (configuration not stated)	2.46
14) CCn1cc(C(=O)O)c(=O)c2cc(F)c(N3CCC(C)(N)/C(=N/OC)C3)c(F)c21 (configuration not stated)	2.64
15) CCO/N=C1\CN(c2c(F)cc3c(=O)c(C(=O)O)cn(CC)c3c2F)CCC1(C)N (configuration not stated)	2.77
16) CCO/N=C1\CN(c2c(F)cc3c(=O)c(C(=O)O)cn4c3c2OC[C@@H]4C)CCC1(C)N (some centres not stated)	3.06
17) CO/N=C1\CN(c2c(F)cc3c(=O)c(C(=O)O)cn(C4CC4)c3c2OC)CCC1(C)N (configuration not stated)	2.86

----------
# System: Klebsiella pneumoniae
# procedure-text: Antibacterial activity against 10^4 CFU Klebsiella pneumoniae 09-22 after 18 hrs by CLSI agar dilution method
# Format: functional
# condition-description: 09-22, 18 h
assay-endpoint: MIC (µg/mL)

1. CO/N=C1\CN(c2c(F)cc3c(=O)c(C(=O)O)cn4c3c2OC[C@@H]4C)CCC1(C)N (some centres undefined)	2
2. CCO/N=C1\CN(c2c(F)cc3c(=O)c(C(=O)O)cn(C4CC4)c3c2F)CCC1(C)N (centres undefined)	4
3. COc1c(N2CCNC(C)C2)c(F)cc2c(=O)c(C(=O)O)cn(C3CC3)c12 (centres undefined)	0.25
4. CO/N=C1\CN(c2nc3c(cc2F)c(=O)c(C(=O)O)cn3C2CC2)CCC1(C)N (centres undefined)	16

----------
Item-by-item account of MIC
# Tested on: Streptococcus pneumoniae
# procedure-text: Antibacterial activity against 10^4 CFU Streptococcus pneumoniae 08-4 after 18 hrs by CLSI agar dilution method
# Format: functional
# condition-description: 08-4, 18 h
assay-endpoint: MIC (µg/mL)

1. CCO/N=C1\CN(c2c(F)cc3c(=O)c(C(=O)O)cn(C4CC4)c3c2OC)CCC1(C)N (centres undefined)	0.25
2. CCO/N=C1\CN(c2c(F)cc3c(=O)c(C(=O)O)cn(C4CC4)c3c2OC(F)F)CCC1(C)N (centres undefined)	0.25
3. CO/N=C1\CN(c2nc3c(cc2F)c(=O)c(C(=O)O)cn3-c2ccc(F)cc2F)CCC1(C)N (centres undefined)	1
4. CCO/N=C1\CN(c2c(F)cc3c(=O)c(C(=O)O)cn(CC)c3c2F)CCC1(C)N (centres undefined)	0.25
5. CCO/N=C1\CN(c2nc3c(cc2F)c(=O)c(C(=O)O)cn3C2CC2)CCC1(C)N (centres undefined)	0.25
6. CO/N=C1\CN(c2c(F)cc3c(=O)c(C(=O)O)cn4c3c2OC[C@@H]4C)CCC1(C)N (some centres undefined)	0.25
7. CO/N=C1\CN(c2nc3c(cc2F)c(=O)c(C(=O)O)cn3C2CC2)CCC1(C)N (centres undefined)	4
8. CCO/N=C1\CN(c2c(F)cc3c(=O)c(C(=O)O)cn(C4CC4)c3c2F)CCC1(C)N (centres undefined)	4
9. CCn1cc(C(=O)O)c(=O)c2cc(F)c(N3CCC(C)(N)/C(=N/OC)C3)c(F)c21 (centres undefined)	0.25

----------
MIC overview
# Tested on: Klebsiella pneumoniae
# procedure-text: Antibacterial activity against 10^4 CFU Klebsiella pneumoniae 09-22 after 18 hrs by CLSI agar dilution method
# Type: functional
# condition-description: 09-22, 18 h
assay-endpoint: MIC

1. C[C@H]1COc2c(N3CCN(C)CC3)c(F)cc3c(=O)c(C(=O)O)cn1c23.C[C@H]1COc2c(N3CCN(C)CC3)c(F)cc3c(=O)c(C(=O)O)cn1c23.O	16 µg/mL
2. CCn1cc(C(=O)O)c(=O)c2cc(F)c(N3CCC(C)(N)/C(=N/OC)C3)c(F)c21 (centres undefined)	32 µg/mL
3. CCO/N=C1\CN(c2c(F)cc3c(=O)c(C(=O)O)cn4c3c2OC[C@@H]4C)CCC1(C)N (some centres undefined)	64 µg/mL
4. CO/N=C1\CN(c2nc3c(cc2F)c(=O)c(C(=O)O)cn3C2CC2)CC1CN (centres undefined)	8 µg/mL

----------
Each record here notes measured MIC.
# Test system: Enterococcus faecium
# procedure-text: Antibacterial activity against 10^4 CFU Enterococcus faecium 06-7 after 18 hrs by CLSI agar dilution method
# Type: functional
# condition-description: 06-7, 18 h
assay-endpoint: MIC

1. C[C@H]1COc2c(N3CCN(C)CC3)c(F)cc3c(=O)c(C(=O)O)cn1c23.C[C@H]1COc2c(N3CCN(C)CC3)c(F)cc3c(=O)c(C(=O)O)cn1c23.O [LEVOFLOXACIN]	16 µg/mL
2. CCO/N=C1\CN(c2c(F)cc3c(=O)c(C(=O)O)cn(C4CC4)c3c2OC(F)F)CCC1(C)N (centres undefined)	128 µg/mL
3. CO/N=C1\CN(c2c(F)cc3c(=O)c(C(=O)O)cn(C4CC4)c3c2OC)CCC1(C)N (centres undefined)	> 128 µg/mL
4. CCO/N=C1\CN(c2nc3c(cc2F)c(=O)c(C(=O)O)cn3-c2ccc(F)cc2F)CCC1(C)N (centres undefined)	> 128 µg/mL
5. CO/N=C1\CN(c2c(F)cc3c(=O)c(C(=O)O)cn4c3c2OC[C@@H]4C)CCC1(C)N (some centres undefined)	> 128 µg/mL
6. CO/N=C1\CN(c2nc3c(cc2F)c(=O)c(C(=O)O)cn3-c2ccc(F)cc2F)CCC1(C)N (centres undefined)	> 128 µg/mL
7. CO/N=C1\CN(c2nc3c(cc2F)c(=O)c(C(=O)O)cn3C2CC2)CCC1(C)N (centres undefined)	16 µg/mL
8. CCO/N=C1\CN(c2c(F)cc3c(=O)c(C(=O)O)cn(CC)c3c2F)CCC1(C)N (centres undefined)	> 128 µg/mL
9. CO/N=C1\CN(c2c(F)cc3c(=O)c(C(=O)O)cn(CCF)c3c2F)CCC1(C)N (centres undefined)	128 µg/mL
10. CCO/N=C1\CN(c2nc3c(cc2F)c(=O)c(C(=O)O)cn3C2CC2)CCC1(C)N (centres undefined)	> 128 µg/mL
11. CCO/N=C1\CN(c2c(F)cc3c(=O)c(C(=O)O)cn4c3c2OC[C@@H]4C)CCC1(C)N (some centres undefined)	> 128 µg/mL
12. COc1c(N2CCNC(C)C2)c(F)cc2c(=O)c(C(=O)O)cn(C3CC3)c12 (centres undefined) [GATIFLOXACIN]	4 µg/mL
13. CO/N=C1\CN(c2nc3c(cc2F)c(=O)c(C(=O)O)cn3C2CC2)CC1CN (centres undefined) [GEMIFLOXACIN]	16 µg/mL
14. CCn1cc(C(=O)O)c(=O)c2cc(F)c(N3CCC(C)(N)/C(=N/OC)C3)c(F)c21 (centres undefined)	> 128 µg/mL
